- TARGET_DESC: EGFR[T790M/C797S/d746-750] (Homo sapiens, UniProt P00533, C797S/DEL746-750/T790M)
- Construct: purchased Carna Bio
- Sequence (P00533 with tags, fused parts or gaps DEL746-750/T790M/C797S limits assumed): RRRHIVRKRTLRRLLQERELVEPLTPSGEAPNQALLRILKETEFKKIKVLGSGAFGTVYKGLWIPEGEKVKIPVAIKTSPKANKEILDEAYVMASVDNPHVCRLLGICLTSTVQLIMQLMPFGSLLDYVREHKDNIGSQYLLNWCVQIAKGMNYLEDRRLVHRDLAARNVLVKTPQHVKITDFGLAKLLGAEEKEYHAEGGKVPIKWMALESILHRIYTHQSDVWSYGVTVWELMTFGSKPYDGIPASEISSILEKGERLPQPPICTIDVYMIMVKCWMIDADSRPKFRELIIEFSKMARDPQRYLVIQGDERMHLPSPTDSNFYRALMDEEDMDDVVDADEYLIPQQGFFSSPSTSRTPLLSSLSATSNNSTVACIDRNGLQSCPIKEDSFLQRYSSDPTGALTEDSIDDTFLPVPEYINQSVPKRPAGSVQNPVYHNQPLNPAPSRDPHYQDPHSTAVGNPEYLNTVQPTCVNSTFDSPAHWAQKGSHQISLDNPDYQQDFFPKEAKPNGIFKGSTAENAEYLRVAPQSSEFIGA
- METHOD: Inhibition of EGFR[T790M/C797S/d746-750] biochemical enzymatic activity (HTRF)
- EXPERIMENTAL_CONTEXT: EGFR T790M-C797S-Del19, 1 mM ATP, 1 h, room temperature, read-out: IC50 (nM) @T790M - C797S - Del19
MEASURED_ATTRIBUTE: IC50 (nM)
Return type: number; implicit unit nM.

[in] Give the measured IC50 of Cn1ncc2c1OCCN1CC3CCC(C3)(C1)n1c(nc3ccc(N4CCC(N5CC(F)C5)CC4)cc31)NC(=O)c1cc-2c(=O)n(C)c1 (single isomer, unassigned) [Example A87B] .
[out] 8.6

[in] Also, CN(C)C1CN(c2ccc3nc4n(c3c2)C23CCC(CN(CCOc5c(cnn5C)-c5cc(cn(C)c5=O)C(=O)N4)C2)C3)CC1F (single isomer, unassigned) [Example A84D] please.
[out] 3.3

[in] Now consider CC1CCCCOc2c(cnn2C)-c2cc(cn(C)c2=O)C(=O)Nc2nc3ccc(N4CCN(C)CC4)cc3n21 (centres unmarked) and answer again.
[out] 16

---

- TARGET_DESC: EGFR L858R/T790M (Homo sapiens, UniProt P00533, L858R/T790M)
- Construct: purchased Carna Bio
- Sequence (P00533 25-1210 T790M/L858R): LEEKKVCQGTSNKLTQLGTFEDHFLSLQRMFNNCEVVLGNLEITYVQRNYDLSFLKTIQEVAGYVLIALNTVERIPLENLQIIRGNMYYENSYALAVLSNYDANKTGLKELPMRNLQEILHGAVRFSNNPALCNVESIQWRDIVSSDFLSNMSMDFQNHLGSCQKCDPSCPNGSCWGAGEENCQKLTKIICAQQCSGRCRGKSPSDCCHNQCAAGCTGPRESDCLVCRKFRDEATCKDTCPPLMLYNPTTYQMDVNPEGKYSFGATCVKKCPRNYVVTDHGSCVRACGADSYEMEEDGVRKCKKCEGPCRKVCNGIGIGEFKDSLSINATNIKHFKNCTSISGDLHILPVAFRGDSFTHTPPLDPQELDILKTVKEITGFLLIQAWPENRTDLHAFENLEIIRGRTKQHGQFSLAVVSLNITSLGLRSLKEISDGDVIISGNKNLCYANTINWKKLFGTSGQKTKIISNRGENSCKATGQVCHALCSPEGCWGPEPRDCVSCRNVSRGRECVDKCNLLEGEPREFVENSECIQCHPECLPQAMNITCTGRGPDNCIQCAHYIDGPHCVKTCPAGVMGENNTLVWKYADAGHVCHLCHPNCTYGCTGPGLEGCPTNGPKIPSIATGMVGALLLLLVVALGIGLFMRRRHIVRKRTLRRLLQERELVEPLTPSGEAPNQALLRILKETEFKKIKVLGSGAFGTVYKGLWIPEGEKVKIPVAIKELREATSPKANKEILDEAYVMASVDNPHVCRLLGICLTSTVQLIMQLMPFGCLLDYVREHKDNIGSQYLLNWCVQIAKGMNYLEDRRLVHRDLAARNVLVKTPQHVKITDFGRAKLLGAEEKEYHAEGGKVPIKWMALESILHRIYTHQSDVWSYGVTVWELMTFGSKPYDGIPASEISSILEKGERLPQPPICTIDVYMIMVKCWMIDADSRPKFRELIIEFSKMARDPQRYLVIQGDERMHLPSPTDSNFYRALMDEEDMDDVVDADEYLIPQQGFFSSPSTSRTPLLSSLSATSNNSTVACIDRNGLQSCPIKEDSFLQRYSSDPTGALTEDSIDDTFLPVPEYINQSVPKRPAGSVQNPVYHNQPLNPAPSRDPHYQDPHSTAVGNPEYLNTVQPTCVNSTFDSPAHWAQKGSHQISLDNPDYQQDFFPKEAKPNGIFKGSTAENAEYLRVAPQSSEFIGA
- METHOD: Inhibition of EGFR L858R/T790M biochemical enzymatic activity (HTRF)
- EXPERIMENTAL_CONTEXT: EGFR L858R-T790M, 1 mM ATP, 1 h, room temperature, read-out: IC50 (nM) @L858R-T790M
Some compounds, each annotated with its measured IC50.

compound=CN1CCC12CCN(c1ccc3nc4n(c3c1)C13CCC(CC1)CN(CCOc1c(cnn1C)-c1cc(cn(C)c1=O)C(=O)N4)C3)CC2 target_desc="EGFR L858R/T790M (Homo sapiens, UniProt P00533, L858R/T790M)" meas_value="39 nM"
compound=CN1CCN(c2ccc3nc4n(c3c2)C(C)(C)CCCCOc2c(cnn2C)-c2cc(cn(C)c2=O)C(=O)N4)CC1 target_desc="EGFR L858R/T790M (Homo sapiens, UniProt P00533, L858R/T790M)" meas_value="133 nM"

[in] Value lookup for IC50; key = Cn1ncc2c1OCCN1CC3CCC(C3)(C1)n1c(nc3ccc(N4CCOCC4)cc31)NC(=O)c1cc-2c(=O)n(C)c1 (single isomer, unassigned) [Example A62B]
[out] 6.3 nM

---

The compounds listed here are annotated with their pIC50.
- TARGET_DESC: EGFR Exon19Del/T790M (Homo sapiens, UniProt P00533, DEL746-750/T790M)
- Construct: purchased Carna Bio
- Sequence (P00533 with tags, fused parts or gaps DEL746-750/T790M limits assumed): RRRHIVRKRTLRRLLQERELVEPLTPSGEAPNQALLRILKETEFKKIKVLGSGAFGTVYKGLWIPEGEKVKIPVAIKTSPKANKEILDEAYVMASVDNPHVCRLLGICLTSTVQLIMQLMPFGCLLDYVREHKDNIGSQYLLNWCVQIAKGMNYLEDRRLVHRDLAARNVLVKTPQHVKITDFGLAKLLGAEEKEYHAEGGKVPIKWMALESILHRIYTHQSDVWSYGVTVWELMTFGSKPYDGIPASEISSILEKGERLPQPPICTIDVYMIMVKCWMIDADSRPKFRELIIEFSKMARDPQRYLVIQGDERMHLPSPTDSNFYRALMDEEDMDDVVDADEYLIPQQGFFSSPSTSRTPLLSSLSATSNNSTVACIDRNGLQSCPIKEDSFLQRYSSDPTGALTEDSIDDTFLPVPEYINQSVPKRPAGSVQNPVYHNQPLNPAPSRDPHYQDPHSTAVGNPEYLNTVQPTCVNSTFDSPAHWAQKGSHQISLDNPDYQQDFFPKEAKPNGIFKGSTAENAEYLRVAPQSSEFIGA
- METHOD: Inhibition of EGFR Exon19Del/T790M biochemical enzymatic activity (HTRF)
- EXPERIMENTAL_CONTEXT: EGFR Exon19Del/T790M, 1 mM ATP, 1 h at room temperature, read-out: IC50 @Del19-T790M
FYI, pIC50 means -log10 of a concentration in mol per litre.

Examples from the recorded data:
compound="Cc1cc2cc(n1)-c1cnn(C)c1OCCN1CC3CCC(C3)(C1)n1c(nc3ccc(N4CCC5(CCN(C)CC5)C4)cc31)NC2=O (single isomer, unassigned) [Example B51A]" meas_value=5.47
compound=Cc1cc2cc(n1)-c1cnn(C)c1OCCN1CC3CCC(CC3)(C1)n1c(nc3ccc(N(C)CCCN(C)C)cc31)NC2=O meas_value=8.00
compound="Cc1cc2cc(n1)-c1cnn(C)c1OCCN1CC3CCC(C3)(C1)n1c(nc3ccc(N4CC5CC4CN5C)cc31)NC2=O (single isomer, unassigned) [Example B53A]" meas_value=5.48
compound="Cc1cc2cc(n1)-c1cnn(C)c1OCCN1CC3CCC(C3)(C1)n1c(nc3ccc(N4CCC(N5CCN(C)CC5)C4)cc31)NC2=O (single isomer, unassigned) [Example B49B]" meas_value=8.24

[in] Any idea what pIC50 came out for Cc1cc2cc(n1)-c1cnn(C)c1OCCN1CC3CCC(C3)(C1)n1c(nc3ccc(N4CCN(C(C)C)CC4)cc31)NC2=O (single isomer, unassigned) [Example B57A] on EGFR Exon19Del/T790M (Homo sapiens, UniProt P00533, DEL746-750/T790M)?
[out] 5.75

Cited source: patent US20260365670A1
